- Test protocol: Cell-based cytotoxicity assay
- Parameters: species or system Baby Hamster
- Experimental parameters: hamster

{"Compound": "O=C(/C=C/c1ccc(O)cc1)CC(=O)/C=C/c1ccc(O)cc1 [CC2, Bisdemethoxycurcumin]", "Units": "µM", "CC50 at 24 h": 43.4}

----------
- System under test: UniProtKB P14340
- Sequence (P14340 1476-1653): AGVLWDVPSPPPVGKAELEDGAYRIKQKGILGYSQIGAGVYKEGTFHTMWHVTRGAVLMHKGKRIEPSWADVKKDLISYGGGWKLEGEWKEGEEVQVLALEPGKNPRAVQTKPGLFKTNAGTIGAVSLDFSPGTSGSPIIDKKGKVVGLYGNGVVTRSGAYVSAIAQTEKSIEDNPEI
- Sequence (P14340 1398-1437): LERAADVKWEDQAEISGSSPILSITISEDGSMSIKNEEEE
- Test protocol: In vitro protease assay
- Format: biochemical
pIC50: −log10 of the molar value.

{"Compound": "O=C(/C=C/c1ccc(O)cc1)CC(=O)/C=C/c1ccc(O)cc1 [CC2, Bisdemethoxycurcumin]", "System under test": "UniProtKB P14340", "pIC50": 4.44}
{"Compound": "COc1cc(C=CC(=O)CC(=O)C=Cc2ccc(O)c(OC)c2)ccc1O [CC1, reference compound]", "System under test": "UniProtKB P14340", "pIC50": 4.18}
